# inhibition listing for each entry below
# target_of_assay: Sterol O-acyltransferase 2 (Homo sapiens) (UniProt O75908)
# Sequence (whole entry): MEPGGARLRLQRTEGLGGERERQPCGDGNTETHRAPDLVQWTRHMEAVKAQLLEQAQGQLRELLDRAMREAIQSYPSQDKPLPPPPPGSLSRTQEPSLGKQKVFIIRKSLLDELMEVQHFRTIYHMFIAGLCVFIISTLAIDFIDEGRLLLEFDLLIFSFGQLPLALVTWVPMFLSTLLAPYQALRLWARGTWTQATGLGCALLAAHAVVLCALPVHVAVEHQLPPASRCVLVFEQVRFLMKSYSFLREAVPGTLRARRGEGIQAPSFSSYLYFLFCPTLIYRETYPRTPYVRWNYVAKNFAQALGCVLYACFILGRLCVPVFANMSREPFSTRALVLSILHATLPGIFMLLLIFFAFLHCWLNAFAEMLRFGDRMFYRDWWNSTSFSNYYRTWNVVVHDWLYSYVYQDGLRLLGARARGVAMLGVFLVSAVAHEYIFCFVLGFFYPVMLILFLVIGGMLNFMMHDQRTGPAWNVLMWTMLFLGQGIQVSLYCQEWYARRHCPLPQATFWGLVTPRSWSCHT
# assay_protocol: In vitro inhibition of human Acyl coenzyme A:cholesterol acyltransferase 2 expressed in Hi5 cells at 125 uM
# test_parameters: BTI-TN-5B1-4
Form entry: value (%) — number only.

Some compounds with known inhibition results, for comparison:
{"columns": ["compound", "inhibition (%)"],
 "data": [
  ["CCCCCCCOC(c1ccc2c(c1)OCO2)C(OC)Oc1ccc([C@H]2O[C@@H](c3ccc(OC)c(OC)c3)[C@@H](C)[C@H]2C)cc1OC (some centres undefined)", 26],
  ["CCCCOC(c1ccc2c(c1)OCO2)C(OC)Oc1ccc([C@H]2O[C@@H](c3ccc(OC)c(OC)c3)[C@@H](C)[C@H]2C)cc1OC (some centres undefined)", 28],
  ["CCCCCCOC(c1ccc2c(c1)OCO2)C(OC)Oc1ccc([C@H]2O[C@@H](c3ccc(OC)c(OC)c3)[C@@H](C)[C@H]2C)cc1OC (some centres undefined)", 33],
  ["CCCOC(c1ccc2c(c1)OCO2)C(OC)Oc1ccc([C@H]2O[C@@H](c3ccc(OC)c(OC)c3)[C@@H](C)[C@H]2C)cc1OC (some centres undefined)", 33],
  ["CCCCCCCCOC(c1ccc2c(c1)OCO2)C(OC)Oc1ccc([C@H]2O[C@@H](c3ccc(OC)c(OC)c3)[C@@H](C)[C@H]2C)cc1OC (some centres undefined)", 19],
  ["CCCCCOC(c1ccc2c(c1)OCO2)C(OC)Oc1ccc([C@H]2O[C@@H](c3ccc(OC)c(OC)c3)[C@@H](C)[C@H]2C)cc1OC (some centres undefined)", 33],
  ["CCOC(c1ccc2c(c1)OCO2)C(OC)Oc1ccc([C@H]2O[C@@H](c3ccc(OC)c(OC)c3)[C@@H](C)[C@H]2C)cc1OC (some centres undefined)", 29],
  ["CCCCCCCCCOC(c1ccc2c(c1)OCO2)C(OC)Oc1ccc([C@H]2O[C@@H](c3ccc(OC)c(OC)c3)[C@@H](C)[C@H]2C)cc1OC (some centres undefined)", 10]
]}

Let's switch to this compound now.
// query Which value of inhibition has been reported for COc1ccc([C@@H]2O[C@H](c3ccc(OC(OC)C(OC)c4ccc5c(c4)OCO5)c(OC)c3)[C@H](C)[C@@H]2C)cc1OC (some centres undefined) in the records?
// result 45
